What Kd was measured for each of the following?
Tgt: T1, human FcRH5 protein fragment (soluble) (human, UniProt Q96RD9 16-851)
T1 construct: whole entry named; also called soluble human FcRH5; Human FcRH5 (BIACORE analyte)
T1 sequence: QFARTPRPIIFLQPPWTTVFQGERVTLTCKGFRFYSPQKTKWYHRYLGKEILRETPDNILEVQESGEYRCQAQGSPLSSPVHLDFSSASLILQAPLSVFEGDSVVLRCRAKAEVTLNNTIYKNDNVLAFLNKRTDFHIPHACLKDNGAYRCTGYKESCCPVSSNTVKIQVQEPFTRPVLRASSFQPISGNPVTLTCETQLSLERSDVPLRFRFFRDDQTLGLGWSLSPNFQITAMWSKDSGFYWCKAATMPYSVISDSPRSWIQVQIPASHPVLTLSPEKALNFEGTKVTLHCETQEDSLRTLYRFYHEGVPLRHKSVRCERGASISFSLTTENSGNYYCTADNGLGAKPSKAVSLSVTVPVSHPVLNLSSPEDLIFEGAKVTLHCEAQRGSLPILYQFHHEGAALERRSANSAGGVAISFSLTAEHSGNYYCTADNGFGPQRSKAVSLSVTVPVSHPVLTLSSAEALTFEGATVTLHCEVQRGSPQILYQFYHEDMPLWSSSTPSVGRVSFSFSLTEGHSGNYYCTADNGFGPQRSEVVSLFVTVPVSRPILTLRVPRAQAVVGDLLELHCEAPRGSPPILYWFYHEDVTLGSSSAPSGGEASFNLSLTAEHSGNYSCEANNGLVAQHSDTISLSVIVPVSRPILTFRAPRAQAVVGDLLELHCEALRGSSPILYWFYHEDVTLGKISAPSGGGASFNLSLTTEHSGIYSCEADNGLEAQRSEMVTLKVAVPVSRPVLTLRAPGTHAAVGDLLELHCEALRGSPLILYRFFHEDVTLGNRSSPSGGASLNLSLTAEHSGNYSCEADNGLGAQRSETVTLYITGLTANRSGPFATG
Experiment: SPR, hIgG capture, screening
Method: Briefly, a human IgG capture surface was generated on a Series S CM5 chip using amine coupling and the human IgG capture kit (GE Life Sciences, Piscataway, NJ). Test antibodies were then captured on flow cells 2, 3, or 4, with flow cell 1 used as a reference. […] Interactions were assessed at 25° C. in 10 mM HEPES pH7.4, 150 mM NaCl, and 0.05% Tween 20 (HBSP). […] Kinetic information was calculated by fitting data to a 1:1 binding model. […]
Write the answer as a number in nM, unit excluded.

(Q) Entry hu1G7.v1 heavy chain W52L with light chain of hu1G7.v1.5 (antibody, V domains shown, human IgG) VH: EVQLVESGPGLVKPSETLSLTCTVSGFSLTRFGVHWVRQPPGKGLEWLGVILRGGSTDYNAAFMSRLTISKDNSKNQVSLKLSSVTAADTAVYYCSNHYYGSSDYALDNWGQGTLVTVSS VL: DIQMTQSPSSLSASVGDRVTITCKASQDVSNIVVWFQQKPGKSPKLLIYSGYYRYTGVPSRFSGSGSGTDFTLTISSLQPEDFATYYCQQQFQPPYTFGQGTKVEIK has what Kd?
(A) 130

(Q) Entry hu1G7.v1 heavy chain M64V with light chain of hu1G7.v1.7 (antibody, V domains shown, human IgG) VH: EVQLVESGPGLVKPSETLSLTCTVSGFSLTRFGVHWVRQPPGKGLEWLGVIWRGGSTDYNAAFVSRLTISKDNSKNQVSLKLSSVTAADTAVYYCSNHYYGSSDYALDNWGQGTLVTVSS VL: DIQMTQSPSSLSASVGDRVTITCKASQDVRNLVVWFQQKPGKAPKLLIYSGYYRYTGVPSRFSGSGSGTDFTLTISSLQPEDFATYYCQQHYQPPYTFGQGTKVEIK has what Kd?
(A) 2.5

(Q) Entry hu1G7.v1 heavy chain M64V with light chain of hu1G7.v1.3 (antibody, V domains shown, human IgG) VH: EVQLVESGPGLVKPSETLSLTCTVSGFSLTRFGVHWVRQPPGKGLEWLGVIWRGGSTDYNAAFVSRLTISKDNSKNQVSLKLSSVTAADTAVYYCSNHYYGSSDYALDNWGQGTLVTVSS VL: DIQMTQSPSSLSASVGDRVTITCKASQDVRNIVVWFQQKPGKAPKLLIYSGSYRYSGVPSRFSGSGSGTDFTLTISSLQPEDFATYYCQQQYSPPYTFGQGTKVEIK has what Kd?
(A) 2.5

Attribution: patent US20240383984A1
